Biological target: T1, Human N-terminally SNAP-tagged GIPR (human, UniProt P48546 22-466, SNAP tag labeled with Tag-Lite SNAP-Lumi4-Tb)
T1 sequence (looked up): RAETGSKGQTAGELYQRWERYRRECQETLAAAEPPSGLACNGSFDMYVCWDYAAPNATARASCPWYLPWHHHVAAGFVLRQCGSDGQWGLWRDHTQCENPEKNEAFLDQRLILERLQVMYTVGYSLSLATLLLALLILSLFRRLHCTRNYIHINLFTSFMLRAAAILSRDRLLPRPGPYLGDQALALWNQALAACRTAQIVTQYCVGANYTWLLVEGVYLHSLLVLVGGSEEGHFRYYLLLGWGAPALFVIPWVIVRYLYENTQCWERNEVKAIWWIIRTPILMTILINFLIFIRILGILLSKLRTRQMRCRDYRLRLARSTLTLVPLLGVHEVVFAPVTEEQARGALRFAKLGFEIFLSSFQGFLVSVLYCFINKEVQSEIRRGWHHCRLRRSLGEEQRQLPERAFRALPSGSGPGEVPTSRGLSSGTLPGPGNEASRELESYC
Assay: cell-based or functional assay
*1 amine or outer side, *2 acyl side, *3 side chain or, on linkers, in order; H or OH if unused. Where no end group is shown, it is not given here. Side-chain parts run from the residue outwards. [ ]: non-standard residue; d: D form. The star is where a group is joined. C18 diacid = O=C(O)CCCCCCCCCCCCCCCCC(=O)*; γGlu = O=C(O)[C@H](CCC(=O)[*:2])N[*:1]; AEEA = NCCOCCOCC(=O)O; Aib = CC(C)(N)C(=O)O
observable: Relative hGIPR internalization (%)
Value expressed in %; do not type the unit.

Task item: Which Relative hGIPR internalization (%) value is on record for HADGTFTSDYSIILDK([AEEA-AEEA-γGlu-C18 diacid])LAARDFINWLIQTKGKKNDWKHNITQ-OH [Compound 20] ?
Reply: 38

Task item: Which Relative hGIPR internalization (%) value is on record for HADGTFTSDYST[Aib]LDK([AEEA-AEEA-γGlu-C18 diacid])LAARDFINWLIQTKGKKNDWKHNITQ-OH [Compound 22] ?
Reply: 19

Task item: Which Relative hGIPR internalization (%) value is on record for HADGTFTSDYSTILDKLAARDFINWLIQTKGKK([AEEA-AEEA-γGlu-C18 diacid])NDWKHNITQ-OH [Compound 24] ?
Reply: 41

Task item: Which Relative hGIPR internalization (%) value is on record for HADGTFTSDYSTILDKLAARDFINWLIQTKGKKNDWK([AEEA-AEEA-γGlu-C18 diacid])HNITQ-OH [Compound 25] ?
Reply: 35
